// reported activity coefficient per item
test.protocol: activity coefficient (dimensionless); of the first substance listed, at infinite dilution; xn = mol fraction of the nth substance listed
condition.info: 318.15 K; 101.33 kPa; Liquid; Chromatography; x1 = 0
Answer using only a numeral; do not append any unit.

C1CCCCCC1 [cycloheptane] + CC[N+]1(C)CCOCC1.N#CN=C=[N-]
215

Which activity coefficient is listed for CC(C)CC(C)(C)C [2,2,4-trimethylpentane] + CC[N+]1(C)CCOCC1.N#CN=C=[N-] ?
951

Which activity coefficient is listed for C#CCCC [1-pentyne] + CC[N+]1(C)CCOCC1.N#CN=C=[N-] ?
14.3

Which activity coefficient is listed for CC1CCCCC1 [methylcyclohexane] + CC[N+]1(C)CCOCC1.N#CN=C=[N-] ?
288
